Where do the numbers come from? From patent US11945822B2.

Target: CDK7/Cyclin H/MNAT1 (Homo sapiens)
Construct: purchased Invitrogen PR6749B
Sequence (P50613 whole entry): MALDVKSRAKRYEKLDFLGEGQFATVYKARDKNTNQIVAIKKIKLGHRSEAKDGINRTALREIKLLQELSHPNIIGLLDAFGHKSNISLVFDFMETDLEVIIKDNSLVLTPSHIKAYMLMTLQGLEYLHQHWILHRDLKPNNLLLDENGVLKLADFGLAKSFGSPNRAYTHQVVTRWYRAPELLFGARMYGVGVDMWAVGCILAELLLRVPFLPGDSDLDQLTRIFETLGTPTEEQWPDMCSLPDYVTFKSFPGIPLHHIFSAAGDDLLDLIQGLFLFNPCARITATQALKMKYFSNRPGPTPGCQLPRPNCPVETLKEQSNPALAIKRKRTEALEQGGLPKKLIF
Sequence (P51946 whole entry partner): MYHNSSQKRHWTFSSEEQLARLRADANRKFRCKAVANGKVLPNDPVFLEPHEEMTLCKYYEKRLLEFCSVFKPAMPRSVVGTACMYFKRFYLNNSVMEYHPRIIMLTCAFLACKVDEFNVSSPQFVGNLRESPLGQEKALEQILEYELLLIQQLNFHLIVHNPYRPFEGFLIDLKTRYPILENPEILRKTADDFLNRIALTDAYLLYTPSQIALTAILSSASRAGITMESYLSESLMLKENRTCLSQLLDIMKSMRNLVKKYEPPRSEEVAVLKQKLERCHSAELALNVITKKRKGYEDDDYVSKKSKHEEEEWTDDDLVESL
Sequence (P51948 whole entry partner): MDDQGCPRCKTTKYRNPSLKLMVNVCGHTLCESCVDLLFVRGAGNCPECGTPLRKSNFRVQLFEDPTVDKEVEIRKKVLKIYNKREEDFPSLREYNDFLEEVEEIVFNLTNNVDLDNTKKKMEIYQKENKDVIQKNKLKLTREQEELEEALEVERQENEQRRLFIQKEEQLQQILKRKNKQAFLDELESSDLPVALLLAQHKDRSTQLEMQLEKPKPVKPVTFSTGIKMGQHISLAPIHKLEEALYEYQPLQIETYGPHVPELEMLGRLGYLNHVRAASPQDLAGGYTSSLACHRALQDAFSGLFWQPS
Test: Enzymatic assay for CDK7 (FRET based LANCE Ultra kinase assay)
Format: biochemical
Conditions: CDK7 over CDK5
Quantity Measured: CDK5/CDK7: Selectivity of CDK7 inhibition over CDK5 inhibition

NC1CCN(c2nc(NCc3ccccc3-n3cccn3)n3ncc(Br)c3n2)CC1 | C (C=less than 20 fold)
CCC(=O)Nc1cccc(Oc2cccc(CNc3nc(N4CCC(N)CC4)nc4c(C(C)C)cnn34)c2)c1 | C (C=less than 20 fold)
CC(C)c1cnn2c(NCc3ccccc3-c3ccc4[nH]cnc4c3)nc(N3CCC(N)CC3)nc12 | C (C=less than 20 fold)

----------
Target: CDK5/p25 (Homo sapiens, UniProt Q00535)
Construct: purchased Invitrogen PR8543B
Sequence (Q00535 whole entry): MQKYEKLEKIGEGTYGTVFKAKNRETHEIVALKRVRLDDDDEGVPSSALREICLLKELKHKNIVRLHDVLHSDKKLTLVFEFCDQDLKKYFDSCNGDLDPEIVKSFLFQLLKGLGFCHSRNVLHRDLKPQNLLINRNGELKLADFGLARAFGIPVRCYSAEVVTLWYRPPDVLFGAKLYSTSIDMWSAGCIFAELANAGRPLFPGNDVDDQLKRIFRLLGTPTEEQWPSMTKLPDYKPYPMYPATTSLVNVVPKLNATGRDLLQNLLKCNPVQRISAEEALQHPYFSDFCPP
Sequence (Q15078 99-307 partner limits assumed): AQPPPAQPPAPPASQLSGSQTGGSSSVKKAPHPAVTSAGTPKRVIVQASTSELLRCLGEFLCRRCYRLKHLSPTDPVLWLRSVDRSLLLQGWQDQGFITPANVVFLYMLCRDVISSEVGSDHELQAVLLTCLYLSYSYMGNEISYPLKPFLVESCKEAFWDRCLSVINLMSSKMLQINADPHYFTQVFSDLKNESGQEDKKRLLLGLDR
Experiment: Enzymatic assay for CDK5 (FRET based LANCE Ultra kinase assay)
Type: biochemical
Conditions: read-out: CDK5 enzymatic activity (IC50 range)
Parameter IC50: see the listing below.

Sample answers from the record:
CC(C)c1cnn2c(NCc3ccccc3-n3cc4cc(C(=O)NC5COC5)ccc4n3)nc(N3CCC(N)CC3)nc12 | 0.1 to 1 µM
CC(C)c1cnn2c(NCc3ccccc3-n3cccn3)nc(-c3cccc(N4CCNCC4)c3)nc12 | 0.1 to 1 µM
CC(C)c1cnn2c(NCc3ccccc3-c3ccc4ccccc4n3)nc(NC[C@@H](O)CN)nc12 | > 1 µM
CC(C)c1cnn2c(NCc3ccccc3-n3ccc(C(C)(C)O)n3)nc(N3CCC(O)(CN)CC3)nc12 | 0.1 to 1 µM
CC(C)c1cnn2c(NCc3ccccc3-c3cc4ccccc4[nH]3)nc(N3CCC(N)(CO)CC3)nc12 | 0.1 to 1 µM
CC(C)c1cnn2c(NCc3ccccc3-c3cc4cc([N+](=O)[O-])ccc4[nH]3)nc(N3CCC(N)CC3)nc12 | 0.1 to 1 µM

Request the reported IC50 associated with COc1cccc(-n2cccn2)c1CNc1nc(N2CCC(N)CC2)nc2c(C(C)C)cnn12
> 1 µM

IC50 for CC(C)c1cnn2c(NCc3ccccc3-c3ccc4c(c3)CC(=O)N4)nc(N3CCC(N)CC3)nc12 ?
0.1 to 1 µM

I have this compound here, CC(C)c1cnn2c(NCc3ccccc3-c3nccc4c(NC(=O)CCCN(C)C)cccc34)nc(N3CCC(N)CC3)nc12 , and I need its recorded IC50.
> 1 µM

I'd like to know its IC50. The compound in question is CC(C)c1cnn2c(NCc3ccccc3-n3cc4c(n3)CCNC4=O)nc(N3CCC(N)CC3)nc12
0.1 to 1 µM

I am curious: what IC50 value has been reported for CC(C)c1cnn2c(NCc3ccccc3-c3ccc4ccccc4n3)nc(N3CCC(O)(CN)CC3)nc12 ?
> 1 µM

Consider the compound NC1CCN(c2nc(NCc3ccccc3-n3cccn3)n3ncc(C4CCCC4)c3n2)CC1 and give its measured IC50.
< 0.1 µM

So what's the measured IC50 for this one? CC(=O)NC1CCN(c2nc(NCc3c(Cl)cccc3-n3ccc(C(C)(C)O)n3)n3ncc(C(C)C)c3n2)CC1
> 1 µM

Data request, read-out IC50, for CC(C)C(=O)N1CCc2nn(-c3ccccc3CNc3nc(N4CCC(N)CC4)nc4c(C(C)C)cnn34)cc2C1
< 0.1 µM

----------
Biological target: CDK1/CycE1 (Homo sapiens, UniProt P06493)
Sequence (P06493 whole entry): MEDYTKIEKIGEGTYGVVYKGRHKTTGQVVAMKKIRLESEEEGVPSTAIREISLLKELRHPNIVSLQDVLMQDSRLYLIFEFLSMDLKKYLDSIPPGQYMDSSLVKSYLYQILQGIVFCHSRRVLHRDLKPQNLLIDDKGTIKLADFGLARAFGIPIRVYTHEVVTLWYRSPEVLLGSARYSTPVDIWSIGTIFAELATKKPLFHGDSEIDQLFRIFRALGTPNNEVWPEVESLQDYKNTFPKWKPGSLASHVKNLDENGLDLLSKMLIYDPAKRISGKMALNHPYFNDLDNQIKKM
Sequence (P24864 whole entry partner): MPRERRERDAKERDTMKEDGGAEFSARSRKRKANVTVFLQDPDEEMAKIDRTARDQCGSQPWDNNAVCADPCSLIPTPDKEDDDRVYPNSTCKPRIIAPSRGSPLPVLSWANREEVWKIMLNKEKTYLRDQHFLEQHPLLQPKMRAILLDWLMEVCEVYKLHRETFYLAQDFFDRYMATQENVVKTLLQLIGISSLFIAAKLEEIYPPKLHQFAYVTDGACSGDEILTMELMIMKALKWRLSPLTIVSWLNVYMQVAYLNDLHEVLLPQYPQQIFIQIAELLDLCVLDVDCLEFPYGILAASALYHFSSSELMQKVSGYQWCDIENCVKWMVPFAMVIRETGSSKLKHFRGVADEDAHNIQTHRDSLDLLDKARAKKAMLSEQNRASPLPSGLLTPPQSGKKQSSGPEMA
Assay: In vitro IC50 profile for CDKs family kinase (33PanQinase radiometric assay)
Details: CDK7 selectivity profile in CDKs family
Quantity Measured: IC50

May I ask what IC50 has been recorded for CC(C)c1cnn2c(NCc3c(Cl)cccc3-n3ccc(C(C)(C)O)n3)nc(N3CCC(N)CC3)nc12 ?
> 10 µM

----------
Target: CDK1/Cyclin B (Homo sapiens, UniProt P06493)
Construct: purchased Invitrogen PR4768C
Sequence (P06493 whole entry): as the sequence (P06493 whole entry) above
Sequence (P14635 whole entry partner): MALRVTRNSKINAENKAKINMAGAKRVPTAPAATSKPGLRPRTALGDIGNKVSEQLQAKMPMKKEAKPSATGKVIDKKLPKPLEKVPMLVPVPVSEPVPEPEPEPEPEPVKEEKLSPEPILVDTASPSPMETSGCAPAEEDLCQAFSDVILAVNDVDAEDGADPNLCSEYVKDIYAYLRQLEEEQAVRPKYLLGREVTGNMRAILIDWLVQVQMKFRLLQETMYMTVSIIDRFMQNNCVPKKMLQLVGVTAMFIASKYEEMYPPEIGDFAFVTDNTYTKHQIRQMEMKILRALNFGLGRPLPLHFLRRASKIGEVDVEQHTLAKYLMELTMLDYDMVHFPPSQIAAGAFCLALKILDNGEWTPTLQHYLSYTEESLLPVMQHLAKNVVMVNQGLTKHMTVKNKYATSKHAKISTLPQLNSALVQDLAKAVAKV
Assay: Enzymatic assay for CDK1 (FRET based LANCE Ultra kinase assay)
Format: biochemical
Settings: read-out: CDK1 enzymatic activity (IC50 range)
Each entry below carries its reported IC50.

Cc1ccc(-c2cc3ccccc3[nH]2)c(CNc2nc(N3CCC(N)CC3)nc3c(C(C)C)cnn23)c1 | > 1 µM
CC(C)c1cnn2c(NCc3ccccc3-c3ccc4[nH]c(=O)[nH]c4c3)nc(N3CCC(N)CC3)nc12 | 0.1 to 1 µM
CC(C)c1cnn2c(NCc3cccc4ccc(C5CC5)nc34)nc(N3CCC(N)CC3)nc12 | > 1 µM
CC(C)c1cnn2c(NCc3cccc(Oc4ccc(F)c(NC(=O)CCCN(C)C)c4)c3)nc(N3CCC(N)CC3)nc12 | > 1 µM
CC(C)c1cnn2c(NCc3ccccc3-c3cc4ccccc4[nH]3)nc(OC3CCN(C)CC3)nc12 | > 1 µM
CC(C)c1cnn2c(NCc3c(Cl)cccc3-c3ccc4ccccc4n3)nc(N3CCC(N)CC3)nc12 | > 1 µM
CC(C)c1cnn2c(NCc3cccc4ccncc34)nc(N3CCC(N)CC3)nc12 | 0.1 to 1 µM
CC(C)c1cnn2c(NCc3ccccc3-c3cc4ccccc4[nH]3)nc(N3CCNC(=O)C3)nc12 | > 1 µM
Cc1cccc(-n2ccc(C(C)(C)O)n2)c1CNc1nc(N2CCC(N)CC2)nc2c(C(C)C)cnn12 | > 1 µM
CNC(=O)c1cccnc1CNc1nc(N2CCC(N)CC2)nc2c(C(C)(C)C)cnn12 | > 1 µM

Param item = CC(C)c1cnn2c(NCc3cccc(-c4cc5ccccc5[nH]4)c3)nc(N3CCC(N)CC3)nc12 ; retrieve measured IC50.
> 1 µM

Consider the compound shown here: CC(C)c1cnn2c(NCc3ccccc3-n3cc4ccncc4n3)nc(N3CCC(N)CC3)nc12 What is its recorded IC50?
> 1 µM

// query IC50 value for entry CC(C)c1cnn2c(NCc3ccccc3-c3ccc4ccccc4n3)nc(N3CCC(N)CC3)nc12
> 1 µM

Look at this compound and give its reported IC50. CC(C)c1cnn2c(NCc3ccccc3-c3cc4c(F)cccc4[nH]3)nc(N3CCC(N)CC3)nc12
0.1 to 1 µM

Please give the measured IC50 for this compound: Cc1cccc(C)c1CNc1nc(N2CCC(N)CC2)nc2c(C(C)C)cnn12
> 1 µM

Reported IC50, compound CC(C)c1cnn2c(NCc3ccccc3-c3ccc4ccccc4n3)cc(N3CCC(N)CC3)nc12 : ____
> 1 µM

----------
Biological target: CDK2/Cyclin A (Homo sapiens, UniProt P24941)
Construct: purchased Invitrogen PV6290
Test: Enzymatic assay for CDK2 (FRET based LANCE Ultra kinase assay)
Type: biochemical
Conditions: read-out: CDK2 enzymatic activity (IC50 range)
Method: Enzymatic Binding Assay Protocol for CDK1, CDK2, CDK5 and CDK7 Inhibition activity of the respective compound on CDK kinase under Km value of ATP was tested in FRET based The LANCE® Ultra kinase assay (Perkin Elmer), which uses a ULight™-labeled peptide substrate and an appropriate Europium-labeled anti-phospho-antibody. […] Data was analyzed using XL Fit software.
Quantity Measured: IC50

// known answers, use as guide
CC(C)c1cnn2c(NCc3ccccc3-n3cc4cc(C(=O)NC5COC5)ccc4n3)nc(N3CCC(N)CC3)nc12 [Compound 176] | 100 to 1000 nM
CC(C)c1cnn2c(NCc3ccccc3-n3cc4cc(Oc5ccccc5)ccc4n3)nc(N3CCC(N)CC3)nc12 [Compound 105] | > 1000 nM
CC(C)c1cnn2c(NCc3ccccc3-n3cccn3)nc(N3CCC(O)CC3)nc12 [Compound 4] | 100 to 1000 nM
CC(C)c1cnn2c(NCc3cccc4c3N(C)C(=O)CC4)nc(N3CCC(N)CC3)nc12 [Compound 69] | < 100 nM
CC[C@@H](N)COc1nc(NCc2ccccc2-c2ccc3ccccc3n2)n2ncc(C(C)C)c2n1 [Compound 237] | > 1000 nM
CC(C)c1cnn2c(NCc3ccccc3-c3ccc4ccccc4n3)nc(NCCC(O)CN)nc12 (racemic) [Compound 234] | > 1000 nM

Returns the measured IC50 for the input compound. Input: CC(C)c1cnn2c(NCc3ccccc3-n3cccn3)nc(N3CCC(N4CCNCC4)CC3)nc12 [Compound 174]
> 1000 nM

----------
Test system: RPMI-8226
Experiment: Cellular RPMI-8226 viability assay (CellTiter-Glo, 72 hours)
Format: cell-based
Conditions: Homo sapiens
Quantity Measured: IC50

Observe how each entry below is paired with its result.
CC(C)c1cnn2c(NCc3ccccc3-n3cc4ccncc4n3)nc(N3CCC(N)CC3)nc12 | < 1000 nM
CC(C)c1cnn2c(NCc3ccccc3-c3ccc4[nH]ncc4c3)nc(N3CCC(N)CC3)nc12 | < 1000 nM
CC(C)c1cnn2c(NCc3c(-n4cccn4)cccc3C(F)(F)F)nc(N3CCC(N)CC3)nc12 | 1000 to 10000 nM
CC(C)c1cnn2c(NCc3ccccc3-n3cc4cc(C#N)ccc4n3)nc(N3CCC(N)CC3)nc12 | < 1000 nM

Provide the documented IC50 with RPMI-8226 as the system for CC(C)c1cnn2c(NCc3ccccc3N3CCc4ccccc43)nc(N3CCC(N)CC3)nc12
< 1000 nM

Request - read-out IC50 | tested on RPMI-8226 | molecule CC(C)c1cnn2c(NCc3ccccc3OC3CCN(C)CC3)nc(N3CCC(N)CC3)nc12
1000 to 10000 nM

Form field: IC50 recorded for CC(C)c1cnn2c(NCc3ccccc3-n3cccn3)nc(N3CCC(C)(N)CC3)nc12 with RPMI-8226 (enter value)
< 1000 nM

Reported IC50 for RPMI-8226, given CC(C)c1cnn2c(NCc3ccccc3-c3ccc4c(c3)CC(=O)N4)nc(N3CCC(N)CC3)nc12 ?
1000 to 10000 nM

Quick check: IC50 on RPMI-8226, item CC(C)c1cnn2c(NCc3cccc4c3N(C)C(=O)CC4)nc(N3CCC(N)CC3)nc12 ?
< 1000 nM

# get_value(readout= IC50, system= RPMI-8226) for CC(C)c1cnn2c(NCc3cccc4ccc(NC(=O)CCCN(C)C)nc34)nc(N3CCC(N)CC3)nc12
< 1000 nM

Request - read-out IC50 | tested on RPMI-8226 | molecule CC(C)c1cnn2c(NCc3ccccc3-n3ccc(-c4ccccc4)n3)nc(N3CCC(N)CC3)nc12
1000 to 10000 nM
